Molecular target: BACE (Homo sapiens (Human))
Experiment: In vitro BACE cell-based assay (Aβ40 in conditioned medium, sandwich ELISA)
recorded-metric: IC50 (µM)
Dear colleague, please return just the value in µM, with no unit written.

> print(dat)
                                   molecule  recorded.value
1  NC1=N[C@@](c2cc(NCC#Cc3ccccc3)ccc2F)(C(F)F)[C@H]2C[C@H]2O1 [Example 369]            3.02
2  NC1=N[C@@](c2cc(NC(=O)c3nn(C(F)F)cc3Cl)ccc2Cl)(C(F)F)[C@H]2C[C@H]2O1 [Example 224]          0.0252
3  Cc1nc(OCC(F)(F)F)cnc1C(=O)Nc1ccc(F)c([C@@]2(C(F)F)N=C(N)O[C@@H]3C[C@@H]32)c1 [Example 120]           0.247
4  CC(C)Oc1cnc2c(Nc3cc(Cl)c(F)c([C@@]4(CF)N=C(N)O[C@@H]5C[C@@H]54)c3)nccc2n1 [Example 357]           0.918
5  C#CCOc1cnc(C(=O)Nc2ccc(Cl)c([C@]3(CF)N=C(N)O[C@H]4C[C@H]43)c2)cn1 [Example 280]            2.89

Return reported IC50; argument: COc1cnc(C(=O)Nc2ccc(F)c([C@@]3(C(F)F)N=C(N)O[C@@H]4C[C@@H]43)c2)c(F)c1 [Example 306]
0.0256

###

Tested on: Abeta 40
Test: In vivo inhibition of beta-secretase: Abeta 40 reduction in CSF and brain of the rat
Details: Abeta 40 in rat brain, 3 mpk, after 4 hrs
recorded-metric: % reduction of rat brain levels (3 mpk)

Would you please look over these solved cases?
> print(dat)
                        structure.as.smiles  recorded.value
1  Cc1cc(C#N)cnc1C(=O)Nc1ccc(Cl)c([C@@]2(CF)N=C(N)O[C@@H]3C[C@@H]32)c1    44 (3 mpk) %
2  NC1=N[C@](CF)(c2cc(NC(=O)c3ncc(Cl)cc3Cl)ccc2Cl)[C@H]2C[C@H]2O1    34 (3 mpk) %

Return reported % reduction of rat brain levels (3 mpk); argument: `N#Cc1ccc(C(=O)Nc2ccc(F)c([C@@]3(C(F)F)N=C(N)O[C@@H]4C[C@@H]43)c2)nc1`
46 (3 mpk) %

Return reported % reduction of rat brain levels (3 mpk); argument: `Cc1cc(C#N)cnc1C(=O)Nc1ccc(F)c([C@@]2(C(F)F)N=C(N)O[C@@H]3C[C@@H]32)c1`
52 (3 mpk) %

###

Biological target: Cathepsin D (Cat D) (Homo sapiens (Human))
Assay: In vitro enzymatic Cathepsin D (Cat D) FRET assay
Type: biochemical
Conditions: read-out: CatD IC50
recorded-metric: pIC50
Note: pIC50 values are expressed as the negative base-10 logarithm of concentration in M.

Would you please look over these solved cases?
> print(dat)
                                   compound  recorded.metric  recorded.value
1  Cc1cc(OC(F)F)cnc1C(=O)Nc1ccc(F)c([C@@]2(C(F)F)N=C(N)O[C@@H]3C[C@@H]32)c1            pIC50            3.49
2  Cc1cc(C#N)cnc1C(=O)Nc1cc(Cl)c(F)c([C@@]2(CF)N=C(N)O[C@@H]3C[C@@H]32)c1            pIC50            3.59

Return reported pIC50; argument: `NC1=N[C@](CF)(c2cc(Nc3ncnc4cc(Cl)cnc34)ccc2F)[C@H]2C[C@H]2O1`
3.98

Return reported pIC50; argument: `NC1=N[C@](CF)(c2cc(Nc3nccc4cc(Cl)cnc34)cc(F)c2F)[C@H]2C[C@H]2O1`
4.30

Return reported pIC50; argument: `NC1=N[C@@](c2cc(NC(=O)c3cnc(OC(F)F)cn3)ccc2F)(C(F)F)[C@H]2C[C@H]2O1`
2.23

###

Target: BACE (Homo sapiens (Human), UniProt P56817)
Sequence (P56817 46-501, species assumed): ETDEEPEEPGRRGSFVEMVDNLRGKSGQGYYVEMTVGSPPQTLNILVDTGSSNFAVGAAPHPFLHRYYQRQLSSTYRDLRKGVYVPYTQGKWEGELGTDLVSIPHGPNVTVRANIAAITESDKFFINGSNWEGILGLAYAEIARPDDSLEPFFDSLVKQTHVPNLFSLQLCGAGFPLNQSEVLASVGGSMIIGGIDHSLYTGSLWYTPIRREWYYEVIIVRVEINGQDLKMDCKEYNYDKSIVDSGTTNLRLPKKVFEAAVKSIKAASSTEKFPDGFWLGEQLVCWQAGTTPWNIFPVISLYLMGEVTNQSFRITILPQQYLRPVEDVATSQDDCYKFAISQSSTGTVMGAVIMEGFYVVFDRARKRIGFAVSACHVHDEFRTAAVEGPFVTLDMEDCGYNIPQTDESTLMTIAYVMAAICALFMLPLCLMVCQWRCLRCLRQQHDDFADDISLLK
Assay: In vitro BACE cell-based assay (Aβ40 in conditioned medium, sandwich ELISA)
Where a name gives a salt, the structure may show the parent alone.
recorded-metric: IC50 (µM)
Dear colleague, please return just the value in µM, with no unit written.

Would you please look over these solved cases?
> print(dat)
                                   compound  recorded.value
1  CC#CCOc1cnc(C(=O)Nc2ccc(F)c([C@@]3(C(F)F)N=C(N)O[C@@H]4C[C@@H]43)c2)cn1 [Example 96, trifluoroacetate]          0.0033
2  C=C1CC(CNc2ccc(F)c([C@@]3(C(F)F)N=C(N)O[C@@H]4C[C@@H]43)c2)C1            2.53
3  CC1(C#Cc2ccc(C(=O)Nc3ccc(F)c([C@@]4(C(F)F)N=C(N)O[C@@H]5C[C@@H]54)c3)nc2)COC1           0.514
4  COc1ccc(C(=O)Nc2ccc(F)c([C@@]3(C(F)F)N=C(N)O[C@@H]4C[C@@H]43)c2)nn1            1.41

Return reported IC50; argument: `NC1=N[C@@](c2cc(NC(=O)c3ccc(OCF)cn3)ccc2F)(C(F)F)[C@H]2C[C@H]2O1`
0.0449

Return reported IC50; argument: `NC1=N[C@](CF)(c2cc(NC(=O)c3ncc(Cl)cc3CF)ccc2Cl)[C@H]2C[C@H]2O1`
0.0159

Return reported IC50; argument: C[C@H](C#N)Oc1ccc(C(=O)Nc2ccc(F)c([C@@]3(C(F)F)N=C(N)O[C@@H]4C[C@@H]43)c2)nc1 (mixture of isomers)
0.473

Return reported IC50; argument: `COc1ccc(C(=O)Nc2cc(C)c(F)c([C@@]3(C(F)F)N=C(N)O[C@@H]4C[C@@H]43)c2)nc1`
0.0359

Return reported IC50; argument: `Cn1cc2ccnc(Nc3ccc(F)c([C@@]4(C(F)F)N=C(N)O[C@@H]5C[C@@H]54)c3)c2n1`
0.134

Return reported IC50; argument: `COCc1cc(C#N)cnc1C(=O)Nc1ccc(Cl)c([C@@]2(CF)N=C(N)O[C@@H]3C[C@@H]32)c1`
0.0085

Return reported IC50; argument: `NC1=N[C@@](c2cc(NC(=O)c3ccc(C#CC4CC4)cn3)ccc2F)(C(F)F)[C@H]2C[C@H]2O1`
0.215

Return reported IC50; argument: `Cc1cc(C#N)cnc1C(=O)Nc1cc(Cl)c(F)c([C@@]2(CF)N=C(N)O[C@@H]3C[C@@H]32)c1`
0.0073

Return reported IC50; argument: CO[C@H](C)C(=O)Nc1ccc(F)c([C@@]2(C(F)F)N=C(N)O[C@@H]3C[C@@H]32)c1 (mixture of isomers)
2.54

Return reported IC50; argument: `NC1=N[C@@](c2cc(NC(=O)c3ncc(Cl)cc3CO)ccc2F)(C(F)F)[C@H]2C[C@H]2O1`
0.0293

Return reported IC50; argument: Cc1nc(Cl)cnc1C(=O)Nc1ccc(F)c([C@@]2(C(F)F)N=C(N)O[C@@H]3C[C@@H]32)c1 (stereo in doubt)
2.38

Return reported IC50; argument: `Cc1cc(C(F)(F)F)cnc1C(=O)Nc1ccc(Cl)c([C@@]2(C(F)F)N=C(N)O[C@@H]3C[C@@H]32)c1`
0.0116

Return reported IC50; argument: `NC1=N[C@@](c2cc(NC(=O)c3cc(Cl)ccn3)ccc2F)(C(F)F)[C@H]2C[C@H]2O1`
2.11

Return reported IC50; argument: `COc1ccc(C(=O)Nc2ccc(F)c([C@@]3(CF)N=C(N)O[C@@H]4C[C@@H]43)c2)nc1`
0.0156

###

Biological target: Cathepsin D (Cat D) (Homo sapiens (Human), UniProt P07339)
Sequence (P07339 65-412, species assumed): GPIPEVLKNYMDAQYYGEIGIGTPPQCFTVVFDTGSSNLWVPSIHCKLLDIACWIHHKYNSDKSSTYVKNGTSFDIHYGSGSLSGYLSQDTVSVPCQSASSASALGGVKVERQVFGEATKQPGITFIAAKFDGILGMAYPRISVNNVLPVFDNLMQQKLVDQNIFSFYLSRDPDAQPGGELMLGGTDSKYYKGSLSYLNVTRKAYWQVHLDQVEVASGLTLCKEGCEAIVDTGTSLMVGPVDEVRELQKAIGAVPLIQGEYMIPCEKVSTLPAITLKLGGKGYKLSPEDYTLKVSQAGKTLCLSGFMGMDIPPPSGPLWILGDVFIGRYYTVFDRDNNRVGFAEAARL
Assay: In vitro enzymatic Cathepsin D (Cat D) FRET assay
Format: biochemical
Details: read-out: CatD IC50
Threshold 1000 µM. IC50 below it: Fulfilled. IC50 at it or above: Not fulfilled.

The examples below pair each entry with its known result.
> print(dat)
                                   compound  assigned.label
1  Cc1cc(C(F)(F)F)cnc1C(=O)Nc1ccc(Cl)c([C@@]2(C(F)F)N=C(N)O[C@@H]3C[C@@H]32)c1       Fulfilled
2  COc1cnc(C(=O)Nc2cc(F)c(F)c([C@@]3(C(F)F)N=C(N)O[C@@H]4C[C@@H]43)c2)cn1   Not fulfilled
3  NC1=N[C@@](c2cc(N[C@H]3CCCc4cc(Br)cnc43)ccc2F)(C(F)F)[C@H]2C[C@H]2O1 (mixture of isomers)       Fulfilled
4  COc1cc(C#N)cnc1C(=O)Nc1ccc(F)c([C@@]2(C(F)F)N=C(N)O[C@@H]3C[C@@H]32)c1   Not fulfilled

In the record for `NC1=N[C@@](c2cc(NC(=O)c3cnc(OCC#CC4CC4)cn3)ccc2F)(C(F)F)[C@H]2C[C@H]2O1` , is IC50 less than 1000 µM?
Fulfilled

In the record for `CN(C)c1cc(C#N)cnc1C(=O)Nc1ccc(F)c([C@@]2(C(F)F)N=C(N)O[C@@H]3C[C@@H]32)c1` , is IC50 less than 1000 µM?
Fulfilled

In the record for `N#Cc1ccc(C(=O)Nc2cc(F)c(F)c([C@@]3(CF)N=C(N)O[C@@H]4C[C@@H]43)c2)nc1` , is IC50 less than 1000 µM?
Fulfilled

In the record for NC1=NC(CF)(c2cc(NC(=O)c3nn(C(F)F)cc3Cl)cc(F)c2F)[C@@H]2C[C@@H]2O1 (stereo in doubt) , is IC50 less than 1000 µM?
Fulfilled

In the record for `NC1=N[C@@](c2cc(NC(=O)c3ccc(OCC#CC4CC4)cn3)ccc2F)(C(F)F)[C@H]2C[C@H]2O1` , is IC50 less than 1000 µM?
Fulfilled

In the record for `Cc1cc(NC(=O)c2ccc(Cl)cn2)cc([C@]2(C(F)F)N=C(N)O[C@H]3C[C@H]32)c1F` , is IC50 less than 1000 µM?
Not fulfilled

In the record for `Cc1cc(C#N)cnc1C(=O)Nc1cc(F)c(Cl)c([C@@]2(CF)N=C(N)O[C@@H]3C[C@@H]32)c1` , is IC50 less than 1000 µM?
Fulfilled

In the record for `NC1=N[C@](CF)(c2cc(NC(=O)c3nn(C(F)F)cc3Cl)cc(F)c2F)[C@H]2C[C@H]2O1` , is IC50 less than 1000 µM?
Fulfilled

In the record for N#Cc1ccc(C(=O)Nc2cc(F)c(Cl)c([C@]3(CF)N=C(N)O[C@H]4C[C@H]43)c2)nc1 (racemic) , is IC50 less than 1000 µM?
Fulfilled

In the record for `N#Cc1cnc2c(Nc3cc(F)c(F)c([C@@]4(C(F)F)N=C(N)O[C@@H]5C[C@@H]54)c3)ncc(F)c2c1` , is IC50 less than 1000 µM?
Fulfilled

In the record for NC1=N[C@](c2cc(NC(=O)c3ccc(Cl)cn3)cnc2F)(C(F)F)[C@@H]2C[C@@H]2O1 (racemic) , is IC50 less than 1000 µM?
Fulfilled

In the record for `CC#CCOc1cnc(C(=O)Nc2ccc(F)c([C@@]3(C)N=C(N)O[C@@H]4C[C@@H]43)c2)c(C)c1` , is IC50 less than 1000 µM?
Fulfilled
